tested on: T-47D breast; assay: NCI-60 one-dose screen, 48 h (100 = growth as untreated, 0 = no growth, -100 = all killed); conditions: 10 µM unless noted
The panel holds about 83,000 compounds, 20% with a hit somewhere; the sample as a whole holds those more often.
readout label: growth (%)
Just the number in %, nothing appended.

[[record]]
compound = "CCN(CC)CCOC(COc1cc(C)cc(C)c1)COc1cc(C)cc(C)c1"
result_unit = "%"
result_number = 18.8

[[record]]
compound = "O=C1c2ccccc2-c2c1c1c(NCCCO)nc3ccccc3c1n2Cc1ccccc1"
result_unit = "%"
result_number = 78.2

[[record]]
compound = "CC(=O)c1c[nH]c2ccc(-c3ccnc(Nc4ccc(NC(=O)c5cccc(F)c5)c(CN5CCOCC5)c4)n3)cc12"
result_unit = "%"
result_number = -5.6

[[record]]
compound = "NC(=O)c1ncn(C2OC(CO)C(O)C2O)n1 (stereo not given)"
result_unit = "%"
result_number = 84.6

[[record]]
compound = "CCCCCCCCCCN=C(N)N=C(N)N"
result_unit = "%"
result_number = 29.4

[[record]]
compound = "O=C(N=Nc1c(O)[nH]c2ccc(F)cc12)c1cc2ccccc2[nH]1"
result_unit = "%"
result_number = 88.2


Q: Return reported growth for target or system T-47D breast, item COc1ccc(/C(=C\c2ccccc2)C(=O)O)cc1OC .
Ans: 85.7
